# System: HS 578T breast
# protocol.details: NCI tumour cell line growth inhibition, 48 h
observable: TGI

> print(dat)
                                   compound    study.target  observed
1  Nc1c(C(=O)c2cccc(C#CCO)c2)cnn1-c1ccc(F)cc1  HS 578T breast   > 25 µM
2  CC(=O)Oc1ccc2c3c1O[C@H]1[C@H](O)CC[C@@]4(O)[C@@H](C2)N(C)CC[C@]314  HS 578T breast  > 100 µM

Task: Could you share what TGI was measured for CC1(C)N=C(C2CCCN2C(=O)OCc2ccccc2)OC1=O (stereo not drawn) , tested on HS 578T breast?
Output: > 100 µM

// provenance: PubChem BioAssay (NCI)
